Entry source: patent US20250281611A1

Test target: T1, CD33 (UniProt P20138 18-364, limits assumed)
T1 construct: whole, on cells; also called Siglec-3; CD33 on MOLM-13 cells
T1 sequence (P20138 18-364 limits assumed): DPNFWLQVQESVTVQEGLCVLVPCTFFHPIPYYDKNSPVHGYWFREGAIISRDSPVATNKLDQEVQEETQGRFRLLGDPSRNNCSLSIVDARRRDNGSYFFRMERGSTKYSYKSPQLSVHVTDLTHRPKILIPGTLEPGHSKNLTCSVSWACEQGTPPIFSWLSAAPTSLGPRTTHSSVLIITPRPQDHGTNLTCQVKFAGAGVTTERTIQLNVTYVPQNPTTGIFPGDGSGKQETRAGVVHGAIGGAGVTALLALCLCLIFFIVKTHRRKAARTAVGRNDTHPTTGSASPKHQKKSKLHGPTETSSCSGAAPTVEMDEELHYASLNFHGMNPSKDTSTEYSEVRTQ
Assay protocol: flow cytometry, MOLM-13 cells, anti-His-FITC detection
Procedure: MOLM-13 cells were incubated with different CD33 BRIDGE variants at saturating concentrations. […] The MFI intensity correlates with the number of secondary antibodies bound to the CD33 BRIDGE variants that are only detected if they are bound to the MOLM-13 cells. MFI: median fluorescence intensity. BLItz: Bio-Layer interferometry (BLI) technology using HIS-tag identification tips. […] The higher the MFIR, the stronger the binding.
Assay endpoint: MFI HisTag FITC
Answer using only a numeral; do not append any unit.

State its MFI HisTag FITC for this binder: CD33 BRIDGE variant B19 (Fab, V domains shown, Lintuzumab-based Fab bridging molecule) VH: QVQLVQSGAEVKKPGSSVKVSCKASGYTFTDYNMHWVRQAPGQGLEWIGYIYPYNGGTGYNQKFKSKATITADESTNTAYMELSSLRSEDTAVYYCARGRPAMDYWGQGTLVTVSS VL: DIQMTQSPSSLSASVGDRVTITCRASESVDNYGISFMNWFQQKPGKAPKLLIYAASNQGSGVPSRFSGSGSGTDFTLTISSLQPDDFATYYCQQSKEVPWTFGQGTKVEIKR
5.35

State its MFI HisTag FITC for this binder: CD33 BRIDGE variant B1 (Fab, V domains shown, Lintuzumab-based Fab bridging molecule) VH: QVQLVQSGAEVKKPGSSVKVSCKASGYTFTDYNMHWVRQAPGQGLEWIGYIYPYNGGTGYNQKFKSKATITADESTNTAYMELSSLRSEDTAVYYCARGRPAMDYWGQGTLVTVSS VL: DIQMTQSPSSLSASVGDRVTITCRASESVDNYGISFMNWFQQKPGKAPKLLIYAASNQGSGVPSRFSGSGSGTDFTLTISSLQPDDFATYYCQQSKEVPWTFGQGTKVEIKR
6.11

State its MFI HisTag FITC for this binder: CD33 BRIDGE variant B9 (Fab, V domains shown, Lintuzumab-based Fab bridging molecule) VH: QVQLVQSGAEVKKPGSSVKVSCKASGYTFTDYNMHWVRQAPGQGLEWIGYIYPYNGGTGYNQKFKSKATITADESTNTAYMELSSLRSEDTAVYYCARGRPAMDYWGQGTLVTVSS VL: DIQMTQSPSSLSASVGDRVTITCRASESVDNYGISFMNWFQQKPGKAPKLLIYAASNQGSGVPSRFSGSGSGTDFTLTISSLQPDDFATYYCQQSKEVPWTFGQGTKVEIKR
6.33
